Target: T1, DENV-3 nonstructural protein 1 (NS1), recombinant (dengue virus serotype 3 (DENV-3))
T1 chain: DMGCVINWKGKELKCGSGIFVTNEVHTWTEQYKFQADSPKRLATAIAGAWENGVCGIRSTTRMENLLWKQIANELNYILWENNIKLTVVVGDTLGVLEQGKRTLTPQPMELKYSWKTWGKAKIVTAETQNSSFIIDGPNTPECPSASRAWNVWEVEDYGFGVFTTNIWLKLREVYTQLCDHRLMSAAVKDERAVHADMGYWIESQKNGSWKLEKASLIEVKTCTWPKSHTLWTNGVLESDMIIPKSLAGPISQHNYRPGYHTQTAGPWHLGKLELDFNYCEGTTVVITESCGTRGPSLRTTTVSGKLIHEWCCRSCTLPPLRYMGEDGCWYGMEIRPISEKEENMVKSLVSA
Assay: SPR; NS1 immobilized
This section presents binders with their documented koff values.
The answer consists of two parts: a number and, after it, its unit.

Binder	koff
sdAb DC4 (VHH, source: E. coli Turner (DE3), pET22b, periplasmic, purified (Ni-Sepharose, SEC)) VHH: EVQLQASGGGLVQAGGSLRLSCAASERTFSHYFVGWFRQAPGKEREFVARITWSGSNVEYEDAVKDRFTLSSDNAKNTVYLHMNSLKPEDTAVYYCAAANTIWTPTIRDYNVWGQGTQVTVSS	0.00741 s⁻¹
sdAb DH12 (VHH, source: E. coli Turner (DE3), pET22b, periplasmic, purified (Ni-Sepharose, SEC)) VHH: EVQLVESGGGSVQAGGSLRLSCAASERTFSYYFMGWFRQAPGKEREWVARIRWNGDGADYTDAVKDRFTISSDHAKNTVYLQMNSLKPEDTAVYYCAAANSIWKPTTRDYNYWGQGTQVSVSS	0.00323 s⁻¹

Short answer for sdAb DD9 (VHH, source: E. coli Turner (DE3), pET22b, periplasmic, purified (Ni-Sepharose, SEC)) VHH: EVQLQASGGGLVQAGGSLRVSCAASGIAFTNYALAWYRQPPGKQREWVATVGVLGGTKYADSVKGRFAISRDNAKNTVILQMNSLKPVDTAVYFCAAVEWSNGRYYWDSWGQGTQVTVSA : koff was 0.000951 s⁻¹

Short answer for sdAb DD5 (VHH, source: E. coli Turner (DE3), pET22b, periplasmic, purified (Ni-Sepharose, SEC)) VHH: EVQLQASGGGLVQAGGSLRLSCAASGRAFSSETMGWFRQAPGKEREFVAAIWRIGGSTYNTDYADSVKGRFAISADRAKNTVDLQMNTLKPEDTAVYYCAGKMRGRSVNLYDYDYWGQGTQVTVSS : koff was 0.000269 s⁻¹
